This section presents sequences with their documented binding signal values.
Subject Of Test: HNF4alpha8 (COS-7 nuclear extract) (Homo sapiens, UniProt P41235-5 1-452)
Sequence: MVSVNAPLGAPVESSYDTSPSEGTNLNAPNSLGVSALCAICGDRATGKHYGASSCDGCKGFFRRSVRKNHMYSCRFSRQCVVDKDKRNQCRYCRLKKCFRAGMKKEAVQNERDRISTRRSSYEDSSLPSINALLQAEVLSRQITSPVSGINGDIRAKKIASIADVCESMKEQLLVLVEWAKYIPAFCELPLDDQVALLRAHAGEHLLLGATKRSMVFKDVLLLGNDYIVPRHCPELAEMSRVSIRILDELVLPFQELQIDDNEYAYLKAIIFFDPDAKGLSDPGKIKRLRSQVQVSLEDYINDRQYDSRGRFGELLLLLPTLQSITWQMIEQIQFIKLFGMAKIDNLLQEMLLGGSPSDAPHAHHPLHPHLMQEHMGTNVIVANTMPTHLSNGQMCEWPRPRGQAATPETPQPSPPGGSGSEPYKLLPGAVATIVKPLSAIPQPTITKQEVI
Experiment Description: protein-binding microarray; COS-7 nuclear extract on double-stranded Agilent 4x180k PBM; binding buffer, salt, pH and temperature not given in the material; high values mean tight binding
Condition: chain copies: 2; label: 3' end of strand 1 on the slide; dsDNA, one strand shown
In all, about 18,000 sequences were measured (“log2 normalized intensity”: median about 0.36, highest 2% from about 7.3 on). Many of the other results were omitted from the sample, so the highest values are more common in it than they were.
Field format: number, assumed log2 normalized intensity, no unit text.

Some sequences with recorded binding signal:
>>> numeric_value("GGTTGCCCAGGGAGAGCTGGACTTTCATCTGCCTAGGGAGATTAGAGTATCGGTCGA")
5.54
>>> numeric_value("AACCTTCATCTCTCTTTGTTGACATCTGCTGCCTAGGGAGATTAGAGTATCGGTCGA")
-0.0144

Incoming: Reported binding signal for HNF4alpha8 (COS-7 nuclear extract) (Homo sapiens, UniProt P41235-5 1-452), given "AATCAAACTGAACTTTGAAACAAGCCCATCGCCTAGGGAGATTAGAGTATCGGTCGA" ?
Outgoing: 3.87

Incoming: For HNF4alpha8 (COS-7 nuclear extract) (Homo sapiens, UniProt P41235-5 1-452), provide binding signal of "CGACCTCCCCGTCACCCTCCCCGCCACCCCGCCTAGGGAGATTAGAGTATCGGTCGA" please.
Outgoing: 7.01

Incoming: Which measured binding signal belongs to "AGGAGTGTCTTTCTCCTTGAACACAGTGTTGCCTAGGGAGATTAGAGTATCGGTCGA" , tested on HNF4alpha8 (COS-7 nuclear extract) (Homo sapiens, UniProt P41235-5 1-452)?
Outgoing: 1.24

These entries and their values trace back to paper PMC10726135.
